assay: Plasma protein binding in human at 2 uM by rapid equilibrium dialysis based LC-MS/MS analysis; type: ADME, cell-free; conditions: read-out: PPB (converted)
Result Type: fraction unbound at 2 µM

Smiles | Result Number
COc1ccc(-c2cc(=O)c3c(O)cc(OP(=O)([O-])[O-])c(-c4cc(-c5cc(=O)c6c(O)cc(OP(=O)([O-])[O-])cc6o5)ccc4OC)c3o2)cc1.[Na+].[Na+].[Na+].[Na+] | 0.017

----------
test: Total clearance in Beagle dog at 26.76 mg/kg, iv administered as single dose measured up to 24 hrs; format: ADME, organism-based, Canis lupus familiaris; details: in vivo

Smiles | clearance
COc1ccc(-c2cc(=O)c3c(O)cc(OP(=O)([O-])[O-])c(-c4cc(-c5cc(=O)c6c(O)cc(OP(=O)([O-])[O-])cc6o5)ccc4OC)c3o2)cc1.[Na+].[Na+].[Na+].[Na+] | 0.69 mL/min/kg

----------
test: AUC(0 to t) in C57BL/6J mouse at 0.711 mg/kg, iv administered as single dose measured up to 24 hrs; assay type: ADME, organism-based; set-up: dose 0.711 mg/kg, time < 24 hrs, route iv; conditions: in vivo

Smiles | Unit Abbrev | AUC(0-t) at 24 h
COc1ccc(-c2cc(=O)c3c(O)cc(OP(=O)([O-])[O-])c(-c4cc(-c5cc(=O)c6c(O)cc(OP(=O)([O-])[O-])cc6o5)ccc4OC)c3o2)cc1.[Na+].[Na+].[Na+].[Na+] | ng·h/mL | 88.8

----------
assay: AUC(0 to t) in Beagle dog at 26.76 mg/kg, iv administered as single dose measured up to 24 hrs; assay type: ADME, organism-based, Canis lupus familiaris; parameters: dose 26.76 mg/kg, time < 24 hrs, route iv; settings: in vivo

Smiles | AUC(0-t) at 24 h (µg·h/mL)
COc1ccc(-c2cc(=O)c3c(O)cc(OP(=O)([O-])[O-])c(-c4cc(-c5cc(=O)c6c(O)cc(OP(=O)([O-])[O-])cc6o5)ccc4OC)c3o2)cc1.[Na+].[Na+].[Na+].[Na+] | 655

----------
test: Cmax in C57BL/6J mouse at 9.103 mg/kg, ip administered as single dose measured up to 24 hrs; format: ADME, organism-based; design: time < 24 hrs, dose 9.103 mg/kg, route ip; conditions: in vivo

Smiles | Cmax (ng/mL)
COc1ccc(-c2cc(=O)c3c(O)cc(OP(=O)([O-])[O-])c(-c4cc(-c5cc(=O)c6c(O)cc(OP(=O)([O-])[O-])cc6o5)ccc4OC)c3o2)cc1.[Na+].[Na+].[Na+].[Na+] | 2080

----------
experiment: Plasma protein binding in human assessed as unbound fraction at 2 uM by rapid equilibrium dialysis based LC-MS/MS analysis; type: ADME, cell-free
Result Type: fraction unbound at 2 µM

Smiles | Result Number
COc1ccc(-c2cc(=O)c3c(O)cc(OP(=O)([O-])[O-])c(-c4cc(-c5cc(=O)c6c(O)cc(OP(=O)([O-])[O-])cc6o5)ccc4OC)c3o2)cc1.[Na+].[Na+].[Na+].[Na+] | 0.02

----------
experiment: Half life in Beagle dog at 26.76 mg/kg, iv administered as single dose measured up to 24 hrs; assay type: ADME, organism-based, Canis lupus familiaris; details: in vivo
Result Type: half-life (h)

Smiles | Unit Abbrev | Result Number
COc1ccc(-c2cc(=O)c3c(O)cc(OP(=O)([O-])[O-])c(-c4cc(-c5cc(=O)c6c(O)cc(OP(=O)([O-])[O-])cc6o5)ccc4OC)c3o2)cc1.[Na+].[Na+].[Na+].[Na+] | h | 3.8
